biological target: LecB (Pseudomonas aeruginosa); test: biochemical; type: binding
ATTRIBUTE MEASURED: EC50

• CC1OC(OCCNC(=S)Nc2ccc(-c3c4ccc(=O)cc-4oc4cc(O)ccc34)c(C(=O)O)c2)C(O)C(O)C1O (mixture of isomers) = 0.697 µM

----------
target: LecB (Pseudomonas aeruginosa, UniProt Q9HYN5); experiment: biochemical; format: binding; details: IC50 relative to Me-α-Man; below 1 = stronger ligand than Me-α-Man
Sequence (Q9HYN5 entry or part of it): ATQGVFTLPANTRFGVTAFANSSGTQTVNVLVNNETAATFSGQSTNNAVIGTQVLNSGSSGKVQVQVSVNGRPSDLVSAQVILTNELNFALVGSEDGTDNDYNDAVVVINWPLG
ATTRIBUTE MEASURED: rIC50 (MeMan)

• CO[C@H]1O[C@H](CNC(=O)/C=C/c2ccccc2)[C@@H](O)[C@H](O)[C@@H]1O [11a] = 0.3
• CO[C@H]1O[C@H](CNC(=O)Cc2ccccc2)[C@@H](O)[C@H](O)[C@@H]1O [11q] = 0.93
• CO[C@H]1O[C@H](CNC(=O)c2ccccc2Cl)[C@@H](O)[C@H](O)[C@@H]1O [11s] = 1.09
• CO[C@H]1O[C@H](CNC(=O)/C=C/c2cccc(N)c2)[C@@H](O)[C@H](O)[C@@H]1O [11g] = 0.29
• CO[C@H]1O[C@H](CNC(=O)/C=C/c2ccc(C)cc2)[C@@H](O)[C@H](O)[C@@H]1O [11k] = 0.16
• CO[C@H]1O[C@H](CNC(=O)/C=C/c2ccc(Cl)cc2Cl)[C@@H](O)[C@H](O)[C@@H]1O [11m] = 0.32
• COc1ccccc1/C=C/C(=O)NC[C@H]1O[C@H](OC)[C@@H](O)[C@@H](O)[C@@H]1O [11b] = 0.21
• CO[C@H]1O[C@H](CNS(=O)(=O)c2c(C)cc(C)cc2C)[C@@H](O)[C@H](O)[C@@H]1O [10e] = 0.015

----------
target: LecB (Pseudomonas aeruginosa, UniProt Q9HYN5); assay: biochemical
pIC50: −log10 of the molar value.
ATTRIBUTE MEASURED: pIC50

* CO[C@H]1O[C@H](CNC(=O)/C=C/c2ccc(Cl)cc2)[C@@H](O)[C@H](O)[C@@H]1O [11l] | 4.32
* CO[C@H]1O[C@H](CNC(=O)/C=C/c2cccc(N)c2)[C@@H](O)[C@H](O)[C@@H]1O [11g] | 4.20
* CO[C@H]1O[C@H](CNC(=O)/C=C/c2ccccc2C)[C@@H](O)[C@H](O)[C@@H]1O [11e] | 4.20
* CO[C@H]1O[C@H](CNC(=O)c2ccccc2Cl)[C@@H](O)[C@H](O)[C@@H]1O [11s] | 3.62
* CO[C@H]1O[C@H](CNS(=O)(=O)c2ccc([N+](=O)[O-])cc2)[C@@H](O)[C@H](O)[C@@H]1O [10d] | 4.32
* CO[C@H]1O[C@H](CNS(=O)(=O)c2ccc(C)cc2)[C@@H](O)[C@H](O)[C@@H]1O [10b] | 4.17
* CO[C@H]1O[C@H](CNC(=O)/C=C/c2ccccc2[N+](=O)[O-])[C@@H](O)[C@H](O)[C@@H]1O [11c] | 4.12
* CO[C@H]1O[C@H](CNC(=O)/C=C/c2cccc([N+](=O)[O-])c2)[C@@H](O)[C@H](O)[C@@H]1O [11f] | 4.27
* CO[C@H]1O[C@H](CNC(=O)/C=C/c2ccc(Cl)cc2Cl)[C@@H](O)[C@H](O)[C@@H]1O [11m] | 4.15
* CO[C@H]1O[C@H](CNC(=O)/C=C/c2ccccc2N)[C@@H](O)[C@H](O)[C@@H]1O [11d] | 4.28
* CO[C@H]1O[C@H](CNC(=O)Cc2ccccc2)[C@@H](O)[C@H](O)[C@@H]1O [11q] | 3.69
* CC1O[C@H](CNS(=O)(=O)/C=C/c2ccccc2)C(O)C(O)[C@@H]1O (stereo partly shown) [compound 15] | 4.90
* COc1ccc(/C=C/C(=O)NC[C@H]2O[C@H](OC)[C@@H](O)[C@@H](O)[C@@H]2O)cc1 [11h] | 4.18
* CO[C@H]1O[C@H](CNS(=O)(=O)c2c(C(C)C)cc(C(C)C)cc2C(C)C)[C@@H](O)[C@H](O)[C@@H]1O [10f] | 4.94
* COc1ccccc1/C=C/C(=O)NC[C@H]1O[C@H](OC)[C@@H](O)[C@@H](O)[C@@H]1O [11b] | 4.34
* CO[C@H]1O[C@H](CNC(=O)c2ccc3ccccc3c2)[C@@H](O)[C@H](O)[C@@H]1O [11t] | 3.93
